Where do the numbers come from? From patent US20240423245A1.

assay: Plasma cannabinoid concentrations and pharmacokinetics during 14-day industrial hemp feeding; assay type: in vivo, Holstein cattle; settings: Holstein, bovine, plasma, po, 5.5 mg/kg, geometric mean; IH fed 14 days, target dose 5.5 mg/kg CBDA, n = 8; read-out: T1/2 (terminal half-life) (converted)
readout kind: half-life
Number plus unit, in that order.

The molecule "C=C(C)[C@@H]1CCC(C)=C[C@H]1c1c(O)cc(CCCCC)c(C(=O)O)c1O" showed half-life equal to 15.3 h

----------
assay: Plasma cannabinoid concentrations and pharmacokinetics during 14-day industrial hemp feeding; format: in vivo, Holstein cattle; settings: Holstein, bovine, plasma, po, 5.5 mg/kg, geometric mean; IH fed 14 days, target dose 5.5 mg/kg CBDA, n = 8; read-out: MRT0-∞
readout kind: MRT inf (days)
Field: numeric (days). Do not append units.

The compound C=C(C)[C@@H]1CCC(C)=C[C@H]1c1c(O)cc(CCCCC)c(C(=O)O)c1O [CBDA, cannabidiolic acid] showed MRT inf equal to 34.3

----------
assay: Plasma cannabinoid concentrations and pharmacokinetics during 14-day industrial hemp feeding; format: in vivo, Holstein cattle; conditions: Holstein, bovine, plasma, po, 5.5 mg/kg, median; IH fed 14 days, target dose 5.5 mg/kg CBDA, n = 8
readout kind: AUC(0-inf) (ng·h/mL)
Field: numeric (ng·h/mL). Do not append units.

The compound "C=C(C)[C@@H]1CCC(C)=C[C@H]1c1c(O)cc(CCCCC)c(C(=O)O)c1O" showed AUC(0-inf) equal to 13600

----------
experiment: Plasma cannabinoid concentrations and pharmacokinetics during 14-day industrial hemp feeding; assay type: in vivo, Holstein cattle; details: Holstein, bovine, plasma, po, 5.5 mg/kg, median; IH fed 14 days, target dose 5.5 mg/kg CBDA, n = 8
readout kind: Tmax (h)
Field: numeric (h). Do not append units.

The compound "C=C(C)[C@@H]1CCC(C)=C[C@H]1c1c(O)cc(CCCCC)c(C(=O)O)c1O" showed Tmax equal to 24

----------
assay: Plasma cannabinoid concentrations and pharmacokinetics during 14-day industrial hemp feeding; type: in vivo, Holstein cattle; details: Holstein, bovine, plasma, po, 5.5 mg/kg, geometric mean; IH fed 14 days, target dose 5.5 mg/kg CBDA, n = 8
readout kind: AUC(0-t) (ng·h/mL)
Field: numeric (ng·h/mL). Do not append units.

The compound "C=C(C)[C@@H]1CCC(C)=C[C@H]1c1c(O)cc(CCCCC)c(C(=O)O)c1O" showed AUC(0-t) equal to 13500

----------
test: Plasma cannabinoid concentrations and pharmacokinetics during 14-day industrial hemp feeding; assay type: in vivo, Holstein cattle; settings: Holstein, bovine, plasma, po, 5.5 mg/kg, median; IH fed 14 days, target dose 5.5 mg/kg CBDA, n = 8; read-out: T1/2 (converted)
readout kind: half-life (h)
Field: numeric (h). Do not append units.

The molecule C=C(C)[C@@H]1CCC(C)=C[C@H]1c1c(O)cc(CCCCC)c(C(=O)O)c1O [CBDA, cannabidiolic acid] showed half-life equal to 14.8

----------
experiment: Plasma cannabinoid concentrations and pharmacokinetics during 14-day industrial hemp feeding; format: in vivo, Holstein cattle; settings: Holstein, bovine, plasma, po, 5.5 mg/kg, median; IH fed 14 days, target dose 5.5 mg/kg CBDA, n = 8
readout kind: Cmax
Number plus unit, in that order.

The compound "C=C(C)[C@@H]1CCC(C)=C[C@H]1c1c(O)cc(CCCCC)c(C(=O)O)c1O" showed Cmax equal to 22.2 ng/mL
